Assay: Stability in human plasma
Type: ADME, cell-free
Settings: read-out: Stability
Below, each entry is listed alongside its reported half-life.

| Smiles record | half-life |
| --- | --- |
| COc1ccc(NC(=N)NCCCOc2ccc(F)cc2)cc1 | > 6 h |
| N=C(NCCCOc1ccc(F)cc1)Nc1ccc(Cl)cc1 | > 6 h |
| N=C(NCCCOc1ccc(F)cc1)Nc1ccc(I)cc1 | > 6 h |

* * *

Assay: Ratio of drug level in Swiss mouse brain to plasma at 10 mg/kg, ip
Reported metric: Kp

| Smiles record | Result value |
| --- | --- |
| N=C(NCCCOc1ccc(F)cc1)Nc1ccc(Cl)cc1 | 5 |
